Biological target: Proteinase-activated receptor 1 (Homo sapiens, UniProt P25116)
Sequence (P25116 whole entry): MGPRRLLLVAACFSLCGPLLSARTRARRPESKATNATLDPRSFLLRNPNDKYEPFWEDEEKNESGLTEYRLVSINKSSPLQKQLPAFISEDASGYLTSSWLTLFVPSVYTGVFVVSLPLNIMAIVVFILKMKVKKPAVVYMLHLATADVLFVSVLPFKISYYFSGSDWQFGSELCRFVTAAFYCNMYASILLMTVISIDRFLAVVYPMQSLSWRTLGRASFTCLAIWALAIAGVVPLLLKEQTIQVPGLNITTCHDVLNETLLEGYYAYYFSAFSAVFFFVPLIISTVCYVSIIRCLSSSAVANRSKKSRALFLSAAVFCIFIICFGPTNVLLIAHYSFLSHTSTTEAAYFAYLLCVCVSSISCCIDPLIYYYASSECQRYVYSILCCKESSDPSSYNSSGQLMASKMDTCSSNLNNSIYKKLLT
Assay: Displacement of [125I]thrombin from thrombin receptor in human platelet membrane
Observed Property: pIC50
pIC50 is a log-scale quantity: -log10 of the concentration expressed in molar.

Query string: Please give the documented pIC50 of O=S(=O)(O)OC(=C\c1cc(O)c(O)c(Br)c1)/C(=C\c1ccc(O)c(Br)c1)OS(=O)(=O)O
Result string: 4.70
